Data origin, for the record: ChEMBL document CHEMBL5226322

Exercise: for every item that follows, state its recorded remaining at 5 µM.
Assay: Metabolic stability in human liver microsome assessed as compound remaining at 5 uM in presence of NADPH by HPLC analysis
Type: ADME
Settings: liver microsomes, read-out: Stability
Number first, unit second: that is the form wanted.

Reported remaining at 5 µM for CN1CCC2(CC1)c1ccccc1N(Cc1ccc(C(=O)NO)cc1)C2c1ccccc1F (racemic) was 100%

Reported remaining at 5 µM for CC1(C)c2ccccc2N(Cc2ccc(C(=O)NO)cc2)C1c1cccnc1 (racemic) was 100%

* * *

Assay: Cytotoxicity in mouse NIH3T3 cells assessed as reduction in cell viability by measuring toxic concentration incubated for 24 hrs by neutral red uptake method based UV/visible spectrophotometer analysis
Format: toxicity
Conditions: read-out: TC50
resultType: CC50 at 24 h (µM)
The reply should be a number in µM, with the unit left off.

Reported CC50 at 24 h for CC1(C)c2ccccc2N(Cc2ccc(C(=O)NO)cc2)C1c1cccnc1 (racemic) was 75
